target: Proto-oncogene tyrosine-protein kinase receptor Ret (Homo sapiens, UniProt P07949)
Sequence (P07949 whole entry): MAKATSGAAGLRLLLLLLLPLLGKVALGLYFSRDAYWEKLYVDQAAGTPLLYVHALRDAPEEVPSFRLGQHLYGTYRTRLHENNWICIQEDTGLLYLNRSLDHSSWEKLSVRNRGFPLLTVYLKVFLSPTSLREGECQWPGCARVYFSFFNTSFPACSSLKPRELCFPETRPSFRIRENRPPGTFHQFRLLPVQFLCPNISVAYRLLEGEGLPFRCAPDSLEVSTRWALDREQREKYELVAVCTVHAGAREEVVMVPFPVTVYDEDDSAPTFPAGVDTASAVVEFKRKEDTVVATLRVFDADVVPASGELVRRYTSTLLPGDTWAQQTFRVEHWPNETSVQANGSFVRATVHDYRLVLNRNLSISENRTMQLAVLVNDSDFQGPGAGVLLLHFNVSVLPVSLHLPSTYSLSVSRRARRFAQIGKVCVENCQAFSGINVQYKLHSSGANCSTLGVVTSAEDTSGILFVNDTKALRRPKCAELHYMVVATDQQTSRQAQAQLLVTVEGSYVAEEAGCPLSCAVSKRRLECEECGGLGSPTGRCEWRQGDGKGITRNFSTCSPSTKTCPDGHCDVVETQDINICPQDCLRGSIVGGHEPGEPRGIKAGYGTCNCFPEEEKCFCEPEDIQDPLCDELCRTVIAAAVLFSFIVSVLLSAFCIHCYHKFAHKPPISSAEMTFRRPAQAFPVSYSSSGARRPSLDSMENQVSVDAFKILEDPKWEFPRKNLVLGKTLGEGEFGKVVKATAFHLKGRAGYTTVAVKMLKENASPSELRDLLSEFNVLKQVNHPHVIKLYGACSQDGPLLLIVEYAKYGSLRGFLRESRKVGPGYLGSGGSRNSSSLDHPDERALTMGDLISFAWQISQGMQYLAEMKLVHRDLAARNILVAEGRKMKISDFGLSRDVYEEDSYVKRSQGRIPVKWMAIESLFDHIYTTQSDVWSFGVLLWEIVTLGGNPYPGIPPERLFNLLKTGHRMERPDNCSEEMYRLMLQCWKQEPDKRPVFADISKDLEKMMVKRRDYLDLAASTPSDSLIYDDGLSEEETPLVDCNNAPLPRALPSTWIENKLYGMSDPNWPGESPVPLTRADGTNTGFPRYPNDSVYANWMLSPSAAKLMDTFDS
MEASUREMENT_KIND: pIC50
pIC50 here is simply -log10 of the concentration when that concentration is written in mol/L.

For the record `CC1(C)CC[C@@H](COc2cccc(-c3cn([C@H]4C[C@@H](CN5CCC5)C4)c4ncnc(N)c34)c2)O1` , what value of pIC50 is listed for Proto-oncogene tyrosine-protein kinase receptor Ret (Homo sapiens, UniProt P07949)?
6.01

---

target: Vascular endothelial growth factor receptor 2 (Homo sapiens, UniProt P35968)
Sequence (P35968 whole entry): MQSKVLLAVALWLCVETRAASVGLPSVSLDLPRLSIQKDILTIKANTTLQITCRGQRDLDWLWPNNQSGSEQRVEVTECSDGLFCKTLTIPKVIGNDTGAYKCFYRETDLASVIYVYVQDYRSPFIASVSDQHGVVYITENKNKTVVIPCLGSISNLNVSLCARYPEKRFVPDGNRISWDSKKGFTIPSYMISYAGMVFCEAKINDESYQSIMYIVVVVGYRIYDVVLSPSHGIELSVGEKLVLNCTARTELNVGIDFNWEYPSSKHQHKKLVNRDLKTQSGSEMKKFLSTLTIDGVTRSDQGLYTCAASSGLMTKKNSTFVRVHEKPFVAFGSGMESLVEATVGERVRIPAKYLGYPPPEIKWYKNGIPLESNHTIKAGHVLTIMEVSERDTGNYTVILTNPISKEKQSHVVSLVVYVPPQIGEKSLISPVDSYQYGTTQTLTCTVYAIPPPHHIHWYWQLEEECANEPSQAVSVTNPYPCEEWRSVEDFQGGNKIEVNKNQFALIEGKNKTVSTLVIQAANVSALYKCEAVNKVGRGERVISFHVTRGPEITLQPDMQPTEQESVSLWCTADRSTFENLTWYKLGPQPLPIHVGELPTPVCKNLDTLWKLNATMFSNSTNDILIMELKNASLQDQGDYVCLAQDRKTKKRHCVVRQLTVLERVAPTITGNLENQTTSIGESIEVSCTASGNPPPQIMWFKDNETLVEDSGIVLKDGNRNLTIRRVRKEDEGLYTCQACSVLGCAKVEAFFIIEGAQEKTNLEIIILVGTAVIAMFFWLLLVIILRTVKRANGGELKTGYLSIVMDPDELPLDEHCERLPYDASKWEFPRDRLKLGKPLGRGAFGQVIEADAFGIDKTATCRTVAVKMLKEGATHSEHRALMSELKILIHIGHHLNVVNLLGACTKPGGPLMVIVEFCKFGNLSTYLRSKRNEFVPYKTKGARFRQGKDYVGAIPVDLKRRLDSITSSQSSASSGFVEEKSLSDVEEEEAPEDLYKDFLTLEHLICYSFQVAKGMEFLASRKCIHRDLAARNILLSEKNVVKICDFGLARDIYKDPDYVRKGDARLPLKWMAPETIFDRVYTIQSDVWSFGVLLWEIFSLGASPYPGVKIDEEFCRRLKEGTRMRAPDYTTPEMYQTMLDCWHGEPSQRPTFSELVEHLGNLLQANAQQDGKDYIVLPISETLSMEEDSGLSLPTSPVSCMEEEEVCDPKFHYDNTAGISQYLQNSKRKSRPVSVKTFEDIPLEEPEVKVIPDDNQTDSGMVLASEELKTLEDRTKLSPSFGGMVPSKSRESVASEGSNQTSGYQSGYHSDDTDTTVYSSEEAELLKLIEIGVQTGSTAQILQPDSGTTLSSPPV
pIC50: −log10 of the molar value.
MEASUREMENT_KIND: pIC50

Reported pIC50 for `CC1(C)CC[C@@H](COc2cccc(-c3cn([C@H]4C[C@@H](CN5CCC5)C4)c4ncnc(N)c34)c2)O1` : what is it?
< 5.00

---

biological target: Phosphatidylinositol 4,5-bisphosphate 3-kinase catalytic subunit beta isoform (Homo sapiens); assay: Inhibition of PI3K-beta (unknown origin)
Sequence (P42338 whole entry, canonical isoform): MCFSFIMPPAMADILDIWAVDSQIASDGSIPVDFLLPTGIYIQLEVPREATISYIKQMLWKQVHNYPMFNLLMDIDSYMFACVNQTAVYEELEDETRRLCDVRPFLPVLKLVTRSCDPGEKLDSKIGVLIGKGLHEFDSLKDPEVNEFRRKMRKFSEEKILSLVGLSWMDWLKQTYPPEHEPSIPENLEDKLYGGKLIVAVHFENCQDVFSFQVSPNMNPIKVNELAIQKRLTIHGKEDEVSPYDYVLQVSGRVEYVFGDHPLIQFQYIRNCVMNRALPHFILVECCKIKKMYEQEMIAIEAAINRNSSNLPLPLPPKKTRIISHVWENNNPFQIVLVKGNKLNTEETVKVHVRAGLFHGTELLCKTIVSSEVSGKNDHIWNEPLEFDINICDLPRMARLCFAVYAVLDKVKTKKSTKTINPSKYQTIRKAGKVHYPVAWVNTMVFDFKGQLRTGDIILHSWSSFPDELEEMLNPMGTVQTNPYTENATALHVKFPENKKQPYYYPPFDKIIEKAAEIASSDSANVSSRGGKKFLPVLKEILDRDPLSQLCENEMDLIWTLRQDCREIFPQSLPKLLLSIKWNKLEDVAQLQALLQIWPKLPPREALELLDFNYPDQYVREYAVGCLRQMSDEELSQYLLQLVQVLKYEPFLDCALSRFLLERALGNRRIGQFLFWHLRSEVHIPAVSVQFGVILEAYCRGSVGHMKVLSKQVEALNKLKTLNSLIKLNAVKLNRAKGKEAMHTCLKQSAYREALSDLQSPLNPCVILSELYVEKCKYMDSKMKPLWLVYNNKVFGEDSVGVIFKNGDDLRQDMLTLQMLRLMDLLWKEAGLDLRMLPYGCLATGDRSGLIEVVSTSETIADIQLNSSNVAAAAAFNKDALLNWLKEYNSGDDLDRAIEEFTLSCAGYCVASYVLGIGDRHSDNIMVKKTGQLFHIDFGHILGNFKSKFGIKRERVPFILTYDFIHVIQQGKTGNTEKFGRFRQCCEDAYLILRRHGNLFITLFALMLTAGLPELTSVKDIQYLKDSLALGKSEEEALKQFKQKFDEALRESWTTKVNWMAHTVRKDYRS
MEASUREMENT_KIND: IC50

Observe how each entry below is paired with its result.
Reported IC50 for `Nc1ncnc2c1c(-c1cccc(OC[C@@H]3CCCO3)c1)cn2[C@H]1C[C@@H](CN2CCC2)C1` : what is it?
> 9 µM

Reported IC50 for `CC1(C)CC[C@@H](COc2cccc(-c3cn([C@H]4C[C@@H](CN5CCC5)C4)c4ncnc(N)c34)c2)O1` : what is it?
> 9 µM

Moving on to another compound below.
Reported IC50 for `Nc1ncnc2c1c(-c1cccc(OCc3ccccc3)c1)cn2[C@H]1C[C@@H](CN2CCC2)C1` : what is it?
> 9 µM

---

target: Ephrin type-B receptor 4 (Homo sapiens, UniProt P54760)
Sequence (P54760 whole entry): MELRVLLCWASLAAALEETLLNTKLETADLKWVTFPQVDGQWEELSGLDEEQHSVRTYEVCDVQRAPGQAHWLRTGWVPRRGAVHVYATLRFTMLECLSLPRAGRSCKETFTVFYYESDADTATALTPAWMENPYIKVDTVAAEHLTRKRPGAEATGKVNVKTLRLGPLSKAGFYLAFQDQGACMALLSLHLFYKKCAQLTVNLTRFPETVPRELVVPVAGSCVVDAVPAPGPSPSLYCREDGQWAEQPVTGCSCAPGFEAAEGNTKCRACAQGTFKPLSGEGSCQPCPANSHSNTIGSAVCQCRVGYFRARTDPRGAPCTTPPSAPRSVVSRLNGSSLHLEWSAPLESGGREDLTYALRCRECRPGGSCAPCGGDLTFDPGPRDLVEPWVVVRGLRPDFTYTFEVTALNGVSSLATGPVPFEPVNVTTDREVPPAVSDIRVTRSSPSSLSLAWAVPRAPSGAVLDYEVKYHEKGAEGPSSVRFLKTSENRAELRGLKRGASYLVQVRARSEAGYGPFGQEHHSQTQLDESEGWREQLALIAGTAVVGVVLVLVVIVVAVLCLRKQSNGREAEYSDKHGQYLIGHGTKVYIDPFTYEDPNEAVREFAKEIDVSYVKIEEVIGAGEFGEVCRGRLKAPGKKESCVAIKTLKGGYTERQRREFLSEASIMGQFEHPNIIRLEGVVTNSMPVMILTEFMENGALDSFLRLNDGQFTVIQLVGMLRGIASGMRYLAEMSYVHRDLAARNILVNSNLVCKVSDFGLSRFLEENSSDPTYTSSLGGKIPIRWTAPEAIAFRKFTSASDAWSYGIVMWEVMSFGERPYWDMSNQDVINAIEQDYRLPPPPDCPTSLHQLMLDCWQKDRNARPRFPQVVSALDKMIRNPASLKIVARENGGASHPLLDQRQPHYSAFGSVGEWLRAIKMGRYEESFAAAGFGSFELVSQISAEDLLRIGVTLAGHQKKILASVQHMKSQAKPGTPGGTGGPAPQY
MEASUREMENT_KIND: IC50
Include the unit after the number when you answer.

For the record `CC1(C)CC[C@@H](COc2cccc(-c3cn([C@H]4C[C@@H](CN5CCC5)C4)c4ncnc(N)c34)c2)O1` , what value of IC50 is listed for Ephrin type-B receptor 4 (Homo sapiens, UniProt P54760)?
690 nM
